These measurements were taken from ChEMBL document CHEMBL1148530.

Tested on: Vero
Test Description: Cytotoxicity against Vero cell line
Type: functional, cell-based
Assay Context: Chlorocebus sabaeus
Quantity: IC50

Some solved cases for reference:
| Compound | IC50 |
| --- | --- |
| NNC(=O)c1ccncc1 | > 62.5 µg/mL |
| S=C(NN=C(c1ccccc1)c1ccccc1)Nc1ncc(C2CCC2)o1 | > 62.5 µg/mL |
| Cc1ccc(/C=N/N=C(\S)Nc2ncc(C3CCC3)o2)cc1 | < 62.5 µg/mL |
| COc1c(N2CCNC(C)C2)c(F)cc2c(=O)c(C(=O)O)cn(C3CC3)c12 (stereo unspecified) | > 62.5 µg/mL |
| C/C(=N\N=C(/S)Nc1ncc(C2CCC2)o1)c1ccc(N)cc1 | 62.5 µg/mL |

Qu. Entry under review: S=C(N/N=C(\c1ccccc1)c1ccc(Br)cc1)Nc1ncc(C2CCC2)o1 . Reported IC50?
Ans. > 62.5 µg/mL

Qu. Also need C/C(=N\N=C(/S)Nc1ncc(C2CCC2)o1)c1ccc([N+](=O)[O-])cc1 , thanks.
Ans. 62.5 µg/mL

Qu. What do we get for CC[C@@H](CO)NCCN[C@@H](CC)CO ?
Ans. > 62.5 µg/mL

Qu. Quick one: CO[C@H]1/C=C/O[C@@]2(C)Oc3c(C)c(O)c4c(O)c(c(/C=N/N5CCN(C)CC5)c(O)c4c3C2=O)NC(=O)/C(C)=C\C=C\[C@H](C)[C@H](O)[C@@H](C)[C@@H](O)[C@@H](C)[C@H](OC(C)=O)[C@@H]1C
Ans. > 62.5 µg/mL

Qu. Next compound up: O=[N+]([O-])c1ccc(/C=N/N=C(\S)Nc2ncc(C3CCC3)o2)cc1
Ans. < 62.5 µg/mL

Qu. Entry to check: O=[N+]([O-])c1cccc(/C=N/N=C(\S)Nc2ncc(C3CCC3)o2)c1
Ans. < 62.5 µg/mL

###

Tested on: Mycobacterium tuberculosis
Test Description: Antimycobacterial activity against Mycobacterium tuberculosis H37Rv
Type: functional
// classify: if (MIC < 0.8 µg/mL) 1.0 else 0.0

| Molecule | Class |
| --- | --- |
| COc1c(N2CCNC(C)C2)c(F)cc2c(=O)c(C(=O)O)cn(C3CC3)c12 (stereo not given) | 1.0 |

Field: next molecule
Qu. Given CN(C)c1ccc(/C=N/N=C(\S)Nc2ncc(C3CCC3)o2)cc1 , is recorded MIC strictly lower than 0.8 µg/mL?
Ans. 0.0

###

Examples of molecules with documented log10 MIC follow.
System: Mycobacterium tuberculosis
Test Description: Antimycobacterial activity against Mycobacterium tuberculosis H37Rv
Type: functional
The base-10 logarithm of MIC, taken with MIC in µg/mL, is what appears here.

Examples with their reported log10 MIC follow.
| Molecule | log10 MIC |
| --- | --- |
| C/C(=N\N=C(/S)Nc1ncc(C2CCC2)o1)c1ccc(C)cc1 | -0.11 |
| Oc1[nH]c2ccccc2c1/N=N/C(S)=N/c1ncc(C2CCC2)o1 | 1.40 |
| S=C(N/N=C/c1ccc(Cl)cc1)Nc1ncc(C2CCC2)o1 | 0.19 |
| O=[N+]([O-])c1cccc(/C=N/N=C(\S)Nc2ncc(C3CCC3)o2)c1 | -0.11 |

Qu. What log10 MIC value was documented for this molecule, CC[C@@H](CO)NCCN[C@@H](CC)CO [ETHAMBUTOL] ?
Ans. 0.19

Qu. How about this molecule: Oc1[nH]c2ccc(F)cc2c1/N=N/C(S)=N/c1ncc(C2CCC2)o1
Ans. 1.10

Qu. Another molecule to check: COc1cc(/C=N/N=C(\S)Nc2ncc(C3CCC3)o2)ccc1O
Ans. 1.10

Qu. Now consider C/C(=N\N=C(/S)Nc1ncc(C2CCC2)o1)c1ccc(N)cc1 and answer again.
Ans. -0.11

Qu. Entry to check: Oc1ccccc1/C=N/N=C(\S)Nc1ncc(C2CCC2)o1
Ans. 0.80

Qu. Moving on to the next molecule: CO[C@H]1/C=C/O[C@@]2(C)Oc3c(C)c(O)c4c(O)c(c(/C=N/N5CCN(C)CC5)c(O)c4c3C2=O)NC(=O)/C(C)=C\C=C\[C@H](C)[C@H](O)[C@@H](C)[C@@H](O)[C@@H](C)[C@H](OC(C)=O)[C@@H]1C [RIFAMPIN]
Ans. -1.00

Qu. Follow-up item: NNC(=O)c1ccncc1 [ISONIAZID]
Ans. -1.30

Qu. Now consider C/C(=N\N=C(/S)Nc1ncc(C2CCC2)o1)c1ccccc1 and answer again.
Ans. 0.49

Qu. Lookup Cc1ccc(/C=N/N=C(\S)Nc2ncc(C3CCC3)o2)cc1
Ans. 0.49

Qu. And O=[N+]([O-])c1ccc(/C=N/N=C(\S)Nc2ncc(C3CCC3)o2)cc1 ?
Ans. -0.41

Qu. Please give the result for C/C(=N\N=C(/S)Nc1ncc(C2CCC2)o1)c1ccc([N+](=O)[O-])cc1 too.
Ans. -0.70

Qu. For C/C(=N\N=C(/S)Nc1ncc(C2CCC2)o1)c1ccccc1O then?
Ans. 0.49

Qu. Now the molecule S=C(N/N=C(\c1ccccc1)c1ccc(Br)cc1)Nc1ncc(C2CCC2)o1
Ans. -1.30

Qu. Same read-out for S=C(NN=C(Cc1ccccc1)Cc1ccccc1)Nc1ncc(C2CCC2)o1 ?
Ans. 0.80
